ASSAYED_SYSTEM: UniProt:P23975
Sequence (P23975 whole entry): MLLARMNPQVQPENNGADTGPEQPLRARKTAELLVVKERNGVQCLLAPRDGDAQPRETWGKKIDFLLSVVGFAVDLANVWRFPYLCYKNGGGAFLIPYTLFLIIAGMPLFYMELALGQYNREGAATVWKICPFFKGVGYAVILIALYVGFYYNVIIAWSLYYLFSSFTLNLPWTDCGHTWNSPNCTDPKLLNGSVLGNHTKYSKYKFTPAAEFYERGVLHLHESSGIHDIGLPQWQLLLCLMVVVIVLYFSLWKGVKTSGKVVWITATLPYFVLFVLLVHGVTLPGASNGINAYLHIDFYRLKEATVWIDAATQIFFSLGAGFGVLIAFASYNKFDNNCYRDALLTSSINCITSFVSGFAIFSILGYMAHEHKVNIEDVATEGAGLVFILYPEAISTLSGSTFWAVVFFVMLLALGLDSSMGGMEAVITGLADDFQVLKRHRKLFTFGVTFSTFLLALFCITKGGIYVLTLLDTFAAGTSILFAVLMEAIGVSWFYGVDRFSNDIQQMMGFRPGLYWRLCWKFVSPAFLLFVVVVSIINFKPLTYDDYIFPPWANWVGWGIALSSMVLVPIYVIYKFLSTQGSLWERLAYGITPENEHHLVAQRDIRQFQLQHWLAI
PROTOCOL_NOTES: Human NET (norepinephrine transporter) uptake assay
Type: cell-based
STATED_CONDITIONS: comparison in words, used to assign configuration
MEASURED_QUANTITY: potency at hNET relative to the other enantiomer or epimer

Please review the entries below; each comes with its answer.
[
  {
    "COMPOUND": "CNC[C@H](c1ccc(Cl)c(Cl)c1)[C@H](O)c1cccc(OC)n1 [compound 167]",
    "RECORDED_VALUE": "higher potency"
  },
  {
    "COMPOUND": "CNC[C@@H](c1ccc(Br)c(Cl)c1)[C@@H](O)c1ccccc1 [compound 110]",
    "RECORDED_VALUE": "lower potency"
  },
  {
    "COMPOUND": "CNCC(Cc1ccccc1OC)c1ccc2ccccc2c1 (stereo not drawn) [compound 57]",
    "RECORDED_VALUE": "more potent"
  },
  {
    "COMPOUND": "CNC[C@H](c1ccc(Cl)c(Cl)c1)[C@H](O)c1cccc([N+](=O)[O-])c1 [compound 102]",
    "RECORDED_VALUE": "more potent"
  },
  {
    "COMPOUND": "CNC[C@@H](c1ccc2ccccc2c1)[C@H](O)c1cc(F)cc(F)c1 [compound 142]",
    "RECORDED_VALUE": "less potent"
  }
]

Please find the next compound below.
Need potency at hNET relative to the other enantiomer or epimer, item CNC[C@H](c1ccc(Cl)c(Cl)c1)[C@@H](O)c1ccccc1I [compound 152]
higher potency

---

ASSAYED_SYSTEM: human serotonin transporter (Homo sapiens (Human))
PROTOCOL_NOTES: Human SERT (serotonin transporter) uptake assay
Format: cell-based
STATED_CONDITIONS: selected reference compounds, HEK293F cells, Cheng-Prusoff; read-out: hSERT Ki
MEASURED_QUANTITY: pKi
In simple prose, pKi is minus the logarithm base ten of a concentration in moles per litre.

[
  {
    "COMPOUND_STRUCTURE_STRING": "CNC[C@H](c1ccc2ccccc2c1)[C@H](O)c1ccccc1",
    "pKi": 8.92
  }
]

Need pKi, item CNC[C@@H](c1ccc2ccccc2c1)[C@H](O)c1ccccc1
7.83

---

ASSAYED_SYSTEM: human serotonin transporter (Homo sapiens (Human), UniProt P31645)
Sequence (P31645 whole entry): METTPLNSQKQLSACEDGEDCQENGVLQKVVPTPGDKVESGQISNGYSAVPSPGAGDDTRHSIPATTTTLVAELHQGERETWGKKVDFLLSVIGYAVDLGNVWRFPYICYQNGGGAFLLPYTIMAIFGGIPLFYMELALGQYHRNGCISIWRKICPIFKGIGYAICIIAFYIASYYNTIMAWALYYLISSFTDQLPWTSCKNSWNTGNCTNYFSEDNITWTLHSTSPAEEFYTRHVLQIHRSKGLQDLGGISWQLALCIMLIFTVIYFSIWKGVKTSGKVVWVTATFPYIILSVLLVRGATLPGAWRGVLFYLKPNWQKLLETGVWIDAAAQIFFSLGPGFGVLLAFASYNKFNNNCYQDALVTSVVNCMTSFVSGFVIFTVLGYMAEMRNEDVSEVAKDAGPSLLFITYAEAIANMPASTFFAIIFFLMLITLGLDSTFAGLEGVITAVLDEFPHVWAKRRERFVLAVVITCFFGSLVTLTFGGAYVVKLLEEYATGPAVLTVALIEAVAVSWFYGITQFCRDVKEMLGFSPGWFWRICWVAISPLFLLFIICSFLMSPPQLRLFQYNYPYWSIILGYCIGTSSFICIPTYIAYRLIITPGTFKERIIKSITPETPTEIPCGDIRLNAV
PROTOCOL_NOTES: Human SERT (serotonin transporter) uptake assay
Format: cell-based
STATED_CONDITIONS: read-out: hSERT Ki
pKi: −log10 of the molar value.
Outcome label depends on pKi relative to 8: at/above gives Fulfilled, below gives Not fulfilled.

Example entries begin here.
[
  {
    "MOLECULE": "CNC[C@H](c1ccc(Cl)c(Cl)c1)[C@@H](O)c1cccc(NS(=O)(=O)C(F)(F)F)c1",
    "ASSAYED_SYSTEM": "human serotonin transporter (Homo sapiens (Human), UniProt P31645)",
    "ANSWER_LABEL": "Not fulfilled"
  },
  {
    "MOLECULE": "CN1C[C@H](c2ccc3ccccc3c2)[C@@H](c2ccccc2)OCC1=O",
    "ASSAYED_SYSTEM": "human serotonin transporter (Homo sapiens (Human), UniProt P31645)",
    "ANSWER_LABEL": "Not fulfilled"
  },
  {
    "MOLECULE": "CNC[C@@H](c1ccc(Cl)c(Cl)c1)[C@@H](O)c1cccc(SC)c1 [Compound 120]",
    "ASSAYED_SYSTEM": "human serotonin transporter (Homo sapiens (Human), UniProt P31645)",
    "ANSWER_LABEL": "Not fulfilled"
  },
  {
    "MOLECULE": "CNCC(CCc1ccccc1)[C@@H](O)c1ccccc1 (some centres unmarked) [Compound 27]",
    "ASSAYED_SYSTEM": "human serotonin transporter (Homo sapiens (Human), UniProt P31645)",
    "ANSWER_LABEL": "Not fulfilled"
  },
  {
    "MOLECULE": "CNCC(Cc1ccccc1)c1ccc2cccnc2c1 (centres unmarked)",
    "ASSAYED_SYSTEM": "human serotonin transporter (Homo sapiens (Human), UniProt P31645)",
    "ANSWER_LABEL": "Fulfilled"
  }
]

Quick check, pKi >= 8? NCC(Cc1ccccc1F)c1ccc2ccccc2c1 (centres unmarked)
Not fulfilled

Also, CNC[C@H](c1ccc(Br)c(Cl)c1)[C@H](O)c1ccccc1 (racemic) please.
Not fulfilled

Also, CNC[C@H](c1ccc2ccccc2c1)[C@H](OCC(=O)NCC(F)(F)F)c1ccccc1 please.
Not fulfilled

Also, CN(C)C[C@H](c1ccc2ccccc2c1)[C@H](O)c1cccs1 (racemic) please.
Not fulfilled

Also, CNC[C@@H](c1ccc(Br)c(Cl)c1)[C@H](O)c1ccccc1 (racemic) please.
Not fulfilled
